// data source = ChEMBL document CHEMBL1961873

# measuredTarget: Tyrosine-protein kinase ABL2 (Homo sapiens) (UniProt P42684);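 also: values are mean percent inhibition of ARG (ABL2), measured within the GSK PKIS set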
# Sequence (P42684 whole entry): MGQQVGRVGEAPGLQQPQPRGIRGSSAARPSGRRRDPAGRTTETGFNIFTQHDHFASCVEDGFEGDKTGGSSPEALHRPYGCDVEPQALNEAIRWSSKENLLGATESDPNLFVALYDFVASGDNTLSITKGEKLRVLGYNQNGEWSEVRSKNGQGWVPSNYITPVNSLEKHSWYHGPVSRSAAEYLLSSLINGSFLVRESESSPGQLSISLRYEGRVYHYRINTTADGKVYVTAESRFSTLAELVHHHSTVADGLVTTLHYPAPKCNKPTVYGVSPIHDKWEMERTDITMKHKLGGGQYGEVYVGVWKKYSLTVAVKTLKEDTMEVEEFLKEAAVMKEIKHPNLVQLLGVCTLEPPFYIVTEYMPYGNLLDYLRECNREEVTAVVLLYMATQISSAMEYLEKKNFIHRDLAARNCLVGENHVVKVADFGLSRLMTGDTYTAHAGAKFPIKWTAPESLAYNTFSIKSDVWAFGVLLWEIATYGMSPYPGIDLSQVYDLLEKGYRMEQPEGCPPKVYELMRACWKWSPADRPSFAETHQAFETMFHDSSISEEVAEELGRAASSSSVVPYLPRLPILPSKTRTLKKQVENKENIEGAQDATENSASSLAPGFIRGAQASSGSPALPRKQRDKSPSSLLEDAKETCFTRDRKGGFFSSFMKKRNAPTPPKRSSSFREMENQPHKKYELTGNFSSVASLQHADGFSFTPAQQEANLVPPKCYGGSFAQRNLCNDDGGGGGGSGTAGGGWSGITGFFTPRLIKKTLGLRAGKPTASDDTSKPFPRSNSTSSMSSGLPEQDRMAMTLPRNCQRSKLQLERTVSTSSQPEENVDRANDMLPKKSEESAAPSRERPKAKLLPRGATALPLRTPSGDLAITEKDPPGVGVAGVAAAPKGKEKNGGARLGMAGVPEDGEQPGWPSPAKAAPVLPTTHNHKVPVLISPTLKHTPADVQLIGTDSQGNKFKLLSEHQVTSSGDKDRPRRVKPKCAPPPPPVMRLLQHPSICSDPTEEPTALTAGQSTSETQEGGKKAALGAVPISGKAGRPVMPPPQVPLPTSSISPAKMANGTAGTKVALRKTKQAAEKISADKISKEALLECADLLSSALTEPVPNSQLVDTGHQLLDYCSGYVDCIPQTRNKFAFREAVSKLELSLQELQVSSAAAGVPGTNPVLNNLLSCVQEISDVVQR
# testSettings: at 0.1 µM
outcomeMeasure: inhibition

* Nc1nc(-c2ccccn2)c(-c2ccc3ncccc3n2)s1 | 3.71%
* NCc1ccc(-c2nc(-c3ccc(Cl)c(O)c3)c(-c3ccncc3)[nH]2)cc1 | 9.17%
* O=C1NC(=O)C(c2ccccc2Cl)=C1Nc1cccc(O)c1 | 4.43%
* Cc1ccc(C(=O)NC2CCCCC2)cc1-c1ccc(C(=O)NCC2CC2)cc1 | 4.04%
* NC(=O)c1ccc(-c2nc(-c3ccccn3)c(-c3ccc4c(c3)OCO4)[nH]2)cc1 | 1.95%
* CS(=O)(=O)CCNCc1nc(-c2ccc3ncnc(Nc4ccc(F)c(Cl)c4)c3c2)cs1 | 4.58%
* Cc1nn(C)c2cc(N(C)c3ccnc(Nc4cccc(S(N)(=O)=O)c4)n3)ccc12 | 30.2%
